- Tested on: Sitophilus oryzae
- EXPERIMENTAL_DETAILS: Fumigation assay (fumigant toxicity) against adults of stored-product insects
- Format: in vivo
- PARTICULARS: Sitophilus oryzae; comparison with other fumigants; fumigation bioassay; read-out: LC50
- Experimental: Culturing of Insects: The stored product insect rice weevil (S. oryzae L.) was reared on whole wheat and the rust-red flour beetle (T. castaneum Herbst.) was reared on wheat flour with 5% yeast. Rice weevil and flour beetle were maintained at 23.6±2.5° C., 70% relative humidity and a photoperiod of 12:12 (Light:Dark). […]
Structures can show the parent of a compound that is named as a salt.
MEASURE_NAME: LC50
Answer shape: numeric part, then the unit.

| MOLECULE | LC50 |
| --- | --- |
| C=CC(C)(O)CCC=C(C)C (centres unmarked) | 39.2 ng/mL |
| CC12CCC(CC1)C(C)(C)O2 | 31 ng/mL |
| CCOC=O [Ethyl formate] | 0.72 ng/mL |
| CBr [Methyl bromide] | 3.6 ng/mL |

Note: attention shifts to another entry.
The recorded LC50 with Sitophilus oryzae for C=C1C(=O)O[C@H](C2=C(C)[C@@H](O)CC2=O)[C@H]1CCC(C)=O [Isosecotanapartholide] was 1.82 ng/mL

----------
# key: entry, value: log10(LC50)
- Tested on: Tribolium castaneum
- EXPERIMENTAL_DETAILS: Fumigation assay (fumigant toxicity) against adults of stored-product insects
- Type: in vivo
- PARTICULARS: Tribolium castaneum; comparison with other fumigants; fumigation bioassay; read-out: LC50
- Method: Culturing of Insects: The stored product insect rice weevil (S. oryzae L.) was reared on whole wheat and the rust-red flour beetle (T. castaneum Herbst.) was reared on wheat flour with 5% yeast. Rice weevil and flour beetle were maintained at 23.6±2.5° C., 70% relative humidity and a photoperiod of 12:12 (Light:Dark). […]
Structures can show the parent of a compound that is named as a salt.
All values: base-10 log of LC50 in ng/mL.

// below: answered compounds
| COMPOUND | EXPERIMENTAL_RESULT |
| --- | --- |
| CC12CCC(CC1)C(C)(C)O2 [1,8 Cineole] | 1.67 |
| C=CC(C)(O)CCC=C(C)C (centres unmarked) [Linalool] | 1.70 |
| C=C1C(=O)O[C@H](C2=C(C)[C@@H](O)CC2=O)[C@H]1CCC(C)=O [Isosecotanapartholide] | 0.34 |
| CBr [Methyl bromide] | 0.92 |

With those in mind, consider the next compound.
// field: log10(LC50); key: CCOC=O [Ethyl formate] ; value = 0.05
